src = PubChem BioAssay (NCATS)

Each entry below carries its reported max response.
- experimentalProtocol: qHTS assay for small molecule antagonists of peroxisome proliferator-activated receptor delta signaling (AID 588535);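 also: cells co-treated with a PPAR-delta agonist as stimulator during compound exposure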
- condition: HEK293T PPARd-UAS-bla, beta-lactamase FRET ratio, 18 h; 460 nm channel
Records with an inconclusive call do not appear.
Answer in %, number only, no unit symbol.

Examples with answers:
# compound, max response / %
rows = [
    ("Clc1ccc(C(c2ccc(Cl)cc2)C(Cl)Cl)cc1", -7.51),
    ("CCNc1nc(NC(C)(C)C)nc(SC)n1", 44.7),
    ("CCC(C)(C)c1ccc(O)c(C(C)(C)CC)c1", -2.29),
    ("CNP(=O)(OC)Oc1ccc(C(C)(C)C)cc1Cl (stereo unspecified)", 45),
    ("CC(C)=CC1C(C(=O)OCc2coc(Cc3ccccc3)c2)C1(C)C (stereo unspecified)", -29.1),
    ("CC(C)N1C(=O)N(c2ccccc2)CSC1=NC(C)(C)C", 43.5),
]

Query block: If you can, please state the reported max response value of CCS(=O)(=O)c1cccnc1S(=O)(=O)NC(=O)Nc1nc(OC)cc(OC)n1 .
Result block: -45

====

- testSystem: Glucocorticoid receptor (Homo sapiens) (UniProt P04150)
- Sequence (P04150 whole entry, looked up): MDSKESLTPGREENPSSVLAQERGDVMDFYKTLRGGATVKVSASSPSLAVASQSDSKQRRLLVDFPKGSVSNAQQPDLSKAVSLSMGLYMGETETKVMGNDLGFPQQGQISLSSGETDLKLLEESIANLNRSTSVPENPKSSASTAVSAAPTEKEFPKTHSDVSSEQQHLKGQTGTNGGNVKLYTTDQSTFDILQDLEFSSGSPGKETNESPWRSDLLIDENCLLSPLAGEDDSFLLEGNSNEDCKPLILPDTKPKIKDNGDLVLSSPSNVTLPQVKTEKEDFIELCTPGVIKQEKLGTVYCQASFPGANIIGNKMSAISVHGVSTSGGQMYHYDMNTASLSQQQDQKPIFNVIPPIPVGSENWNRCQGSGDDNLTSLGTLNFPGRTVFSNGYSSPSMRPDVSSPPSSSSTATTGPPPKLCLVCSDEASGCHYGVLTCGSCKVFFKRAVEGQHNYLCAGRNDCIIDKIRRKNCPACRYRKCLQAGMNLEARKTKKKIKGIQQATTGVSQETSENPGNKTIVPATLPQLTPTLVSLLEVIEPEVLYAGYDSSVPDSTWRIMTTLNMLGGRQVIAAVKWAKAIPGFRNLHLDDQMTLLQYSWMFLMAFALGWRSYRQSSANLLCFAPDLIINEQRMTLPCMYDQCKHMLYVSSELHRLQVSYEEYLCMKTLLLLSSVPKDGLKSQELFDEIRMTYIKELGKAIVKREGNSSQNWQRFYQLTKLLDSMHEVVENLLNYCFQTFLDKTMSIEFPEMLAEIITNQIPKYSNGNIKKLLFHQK
- experimentalProtocol: qHTS assay for small molecule antagonists of glucocorticoid receptor signaling (AID 588533);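 also: cells stimulated with 2 nM dexamethasone as agonist; % is scaled to controls: 0 for no effect and ±100 for the full control effect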
- condition: HeLa MMTV-bla, GRE beta-lactamase ratio, antagonist mode, 18 h; series mostly up to 76.8 µM
Results filed as inconclusive are left out. Activity calls are given as the source filed them. Calls come from the whole dose curve; as a rule, active = well fitted inhibition curve with a large enough effect in the signal ratio, with a control signal flat (not every such curve was filed as active); inconclusive = small, poorly fitted or top-dose-only effect, or effect the other way, or a change in a side signal; inactive = flat fitted curve, though single readings scatter; the % refers to the signal ratio.
measureName: outcome

# molecule, testSystem, result
rows = [
    ("CCOP(=S)(Oc1cnc(C(C)(C)C)nc1)OC(C)C (stereo not drawn)", "Glucocorticoid receptor (Homo sapiens) (UniProt P04150)", "inactive"),
    ("Clc1ccc([C@]2(Cn3cncn3)C[C@@H](Br)CO2)c(Cl)c1", "Glucocorticoid receptor (Homo sapiens) (UniProt P04150)", "inactive"),
    ("CNC(=O)O/N=C(\\C)SC", "Glucocorticoid receptor (Homo sapiens) (UniProt P04150)", "inactive"),
    ("CCOP(=S)(OCC)SCn1c(=O)oc2cc(Cl)ccc21", "Glucocorticoid receptor (Homo sapiens) (UniProt P04150)", "inactive"),
    ("CCOP(=O)(OCC)SCSP(=S)(OCC)OCC", "Glucocorticoid receptor (Homo sapiens) (UniProt P04150)", "inactive"),
]

Query block: Report outcome for Nc1ccc([N+](=O)[O-])cc1Cl tested on Glucocorticoid receptor (Homo sapiens) (UniProt P04150).
Result block: inactive

Query block: Now the same for CC(C)(C)C(=O)[C@@H](Oc1ccc(Cl)cc1)n1cncn1
Result block: inactive

Query block: Now the same for COP(=O)(OC)SCn1c(=O)oc2cc(Cl)cnc21
Result block: inactive

Query block: Now the same for Nc1ccccc1C(=O)OCCc1ccccc1
Result block: inactive

Query block: Now the same for CCNc1nc(Cl)nc(NC(C)(C)C)n1
Result block: inactive

====

Each entry below carries its reported max response.
- experimentalProtocol: qHTS assay for small molecule antagonists of retinoid X receptor alpha signaling (AID 588546);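 also: cells stimulated with 9-cis-retinoic acid as agonist; % is scaled to controls: 0 for no effect and ±100 for the full control effect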
- condition: HEK293T RXRa-UAS-bla, beta-lactamase ratio, antagonist mode; measured here: W530 green channel, cytotoxicity proxy
Inconclusive results are not listed.
Answer in %, number only, no unit symbol.

Examples with answers:
# molecule, u, numericReadout
records = [
    ("CCOP(=O)(OCC)SCSCC", "%", -15.2),
    ("Cc1cccc2sc3nncn3c12", "%", -10.6),
    ("Fc1ccc(Oc2ccnc3cc(Cl)cc(Cl)c23)cc1", "%", 20.3),
    ("C=C(C)C(=O)OCC(CC)CCCC (stereo not drawn)", "%", -12.9),
    ("O=C(NC(=O)c1c(F)cccc1F)Nc1ccc(Cl)cc1", "%", -10.4),
]

Query block: If you can, please state the reported max response value of CNC(=O)Oc1cccc2c1OC(C)(C)C2O (stereo not drawn) .
Result block: -12.4

Query block: Now the same for CCOP(N)(=O)Oc1ccc(SC)c(C)c1 (stereo not drawn)
Result block: -11.1

Query block: Now the same for CSc1nnc(C(C)(C)C)c(=O)n1N
Result block: -12

====

Each entry below carries its reported Potency.
- experimentalProtocol: qHTS assay for small molecule agonists of the antioxidant response element (ARE) signaling pathway measured by Nrf2-dependant transcriptional activity - cell viability counter screen (AID 720653); also: potency is read from the fitted curve at half-maximal effect
- condition: ARE-bla HepG2 viability, CellTiter-Glo ATP luminescence, 16 h
Results filed as inconclusive are left out. The source made the active and inactive calls. Calls come from the whole dose curve; as a rule, active = well fitted cell-killing curve with a large enough effect in the repeat runs; inconclusive = weak or mixed curves; inactive = flat fitted curve, though single readings scatter.

# smi, Potency
records = [
    ("O=[N+]([O-])c1cc(C(F)(F)F)c(Cl)c([N+](=O)[O-])c1Nc1ncc(C(F)(F)F)cc1Cl", "35.5 µM (active)"),
]

Here is the next item to consider.
Query block: If you can, please state the reported Potency value of CCC[CH2][Sn]([CH2]CCC)([CH2]CCC)[O][Sn]([CH2]CCC)([CH2]CCC)[CH2]CCC .
Result block: 22.4 µM (active)

====

- experimentalProtocol: qHTS assay for cell viability of HEK293 cells (AID 743288); also: % is scaled to controls: 0 for no effect and ±100 for the full control effect; nearly all actives have a fitted effect of over 50% in size
- condition: ATP luminescence (CellTiter-Glo), 18 h; stronger effect = lower value
Inconclusive results are not listed.
Each entry below carries its reported max response.
Answer in %, number only, no unit symbol.

# molecule, u, max response
measured = [
    ("CC(C)C1(C)N=C(c2nc3ccccc3cc2C(=O)O)NC1=O (stereo unspecified)", "%", -6.66),
    ("COc1nc(C)nc(NC(=O)NS(=O)(=O)c2ccccc2Cl)n1", "%", -13),
    ("Cc1cc(Cl)ccc1OC(C)C(=O)O (stereo unspecified)", "%", 0.82),
    ("CC(C)(C)C(=O)[C@@H](Oc1ccc(Cl)cc1)n1cncn1", "%", -4.89),
    ("CC(C)[C@H](C(=O)O[C@H](C#N)c1cccc(Oc2ccccc2)c1)c1ccc(Cl)cc1", "%", -17.9),
    ("CC(C1CC1)C(O)(Cn1cncn1)c1ccc(Cl)cc1 (stereo unspecified)", "%", -14),
]

Query block: If you can, please state the reported max response value of CCOP(=O)(OCC)SCS(=O)(=O)C(C)(C)C .
Result block: -4.67

Query block: Now the same for COC(=O)/C=C(\C)OP(=O)(OC)OC
Result block: -3.83

Query block: Now the same for C[N+]1(C)CCCCC1
Result block: -11.8

Query block: Now the same for CCOC(=O)C(Cl)Cc1cc(-n2nc(C)n(C(F)F)c2=O)c(F)cc1Cl (stereo unspecified)
Result block: -19.9

Query block: Now the same for O=C1NCCN1Cc1ccc(Cl)nc1
Result block: 1.96

Query block: Now the same for Clc1ccc(C2(Cn3cncn3)CC(Br)CO2)c(Cl)c1 (stereo unspecified)
Result block: -20.3

Query block: Now the same for CCSC(=O)N(CC)C1CCCCC1
Result block: 10.3

Query block: Now the same for CCCOc1nn(C(=O)NS(=O)(=O)c2ccccc2C(=O)OC)c(=O)n1C
Result block: -4.57

Query block: Now the same for CCC[CH2][Sn]([CH2]CCC)([CH2]CCC)[CH2]CCC
Result block: -5.3

====

- experimentalProtocol: MultiTox-Fluor Cytotoxicity Assay - LYMP1-001 - Live Cells (AID 947)
- condition: LYMP1-001 lymphoblastoid cells, live-cell protease fluorescence viability; series mostly up to 92.2 µM
Inconclusive results are not listed. The source made the active and inactive calls. Calls follow the shape of the dose curve; as a rule, active = well fitted cell-killing curve with a large enough effect; inconclusive = small, poorly fitted or top-dose-only effect; inactive = flat fitted curve, though single readings scatter.
Answer with one of the outcomes given here: active, inactive

# smi, categoryLabel
rows = [
    ("O=Nc1ccc(Nc2ccccc2)cc1", "active"),
    ("OC(c1ccc(Cl)cc1)(c1ccc(Cl)cc1)C(Cl)(Cl)Cl", "inactive"),
    ("CN(C)c1ccc(N=O)cc1", "active"),
    ("O=[N+]([O-])c1cc(C(F)(F)F)cc([N+](=O)[O-])c1Cl", "inactive"),
    ("COP(=O)(OC)O/C(=C\\Cl)c1cc(Cl)c(Cl)cc1Cl", "inactive"),
]

Query block: Recorded call for C(=NC1CCCCC1)=NC1CCCCC1 ?
Result block: inactive

Query block: Now the same for C=CC(=O)OCC(CO)(COC(=O)C=C)COC(=O)C=C
Result block: active

Query block: Now the same for N#CC(Cl)Cl
Result block: inactive

Query block: Now the same for Oc1c(Br)c(Br)c(Br)c(Br)c1Br
Result block: inactive

====

- Tested on: 3D7
- experimentalProtocol: qHTS profiling for inhibitors of Plasmodium falciparum proliferation (AID 504749); also: nearly all actives have a fitted effect of over 60% in size
- condition: P. falciparum in erythrocytes, SYBR Green DNA, 72 h; series mostly up to 28.7 µM
Inconclusive results are not listed. Active and inactive are the calls of the source. Calls follow the shape of the dose curve; as a rule, active = well fitted inhibition curve with a large enough effect; inconclusive = small, poorly fitted or top-dose-only effect; inactive = flat fitted curve, though single readings scatter.
Answer with one of the outcomes given here: 1 for active, 0 for inactive

Please review the entries below; each comes with its answer.
# compound, categoryLabel
records = [
    ("COC(C(=O)C(O)C(C)O)C1Cc2cc3cc(OC4CC(OC5CC(O)C(OC)C(C)O5)C(OC(C)=O)C(C)O4)c(C)c(O)c3c(O)c2C(=O)C1OC1CC(OC2CC(OC3CC(C)(O)C(OC(C)=O)C(C)O3)C(O)C(C)O2)C(O)C(C)O1 (stereo not drawn)", 1),
    ("CCCCCCC(=O)O[C@H]1CC[C@H]2[C@@H]3CCC4CC(=O)C=C(C)[C@]4(C)[C@H]3CC[C@]12C (stereo partly drawn)", 1),
]

Now, please, on to the next compound.
Query block: Recorded call for C#C[C@]1(O)CC[C@H]2[C@@H]3CCC4=CC(=O)CCC4(C)[C@H]3CCC21C (stereo partly drawn) ?
Result block: 0
